Assay: SPECT/CT biodistribution of 111In-labeled tracers in HEK-FAP tumor-bearing mice
Assay type: in vivo, mouse
Conditions: mouse, in vivo, heart, 6 h p.i.; read-out: Blood Pool Surrogate %ID/g (mean ± SD)

compound: CCCCCC(=O)N[C@H]1CSCc2cc(CSCCNC(=O)CN3CCN(CC(=O)O)CCN(CC(=O)O)CCN(CC(=O)O)CC3)cc(c2)CSC[C@@H](C(=O)O)NC(=O)[C@H](Cc2ccccc2)NC(=O)[C@H](CCC(N)=O)NC(=O)[C@H]([C@@H](C)O)NC(=O)[C@@H]2CCCN2C(=O)[C@@H]2CCCN2C1=O [^111In-FAP-2286, metal not drawn]
u: %ID/g
tissue uptake at 6 h: 0.1

----------
Test: SPECT/CT biodistribution and tumor dosimetry of 177Lu-labeled tracers in HEK-FAP tumor-bearing mice
Type: in vivo, mouse
Conditions: mouse, in vivo, iv, 72 h p.i., 30 MBq IV, HEK-FAP mice; read-out: kidney accumulation
parameter: tissue uptake at 72 h (%ID/g)

compound: CCCCCC(=O)N[C@H]1CSCc2cc(CSCCNC(=O)CN3CCN(CC(=O)O)CCN(CC(=O)O)CCN(CC(=O)O)CC3)cc(c2)CSC[C@@H](C(=O)O)NC(=O)[C@H](Cc2ccccc2)NC(=O)[C@H](CCC(N)=O)NC(=O)[C@H]([C@@H](C)O)NC(=O)[C@@H]2CCCN2C(=O)[C@@H]2CCCN2C1=O [^177Lu-FAP-2286, metal not drawn]
parameter: tissue uptake at 72 h
value: 0.6

----------
Assay: SPECT/CT biodistribution of 111In-labeled tracers in HEK-FAP tumor-bearing mice
Type: in vivo, mouse
Conditions: mouse, in vivo, non-tumor bearing shoulder, 6 h p.i.; read-out: Shoulder %ID/g (mean ± SD)

compound: CCCCCC(=O)N[C@H]1CSCc2cc(CSCCNC(=O)CN3CCN(CC(=O)O)CCN(CC(=O)O)CCN(CC(=O)O)CC3)cc(c2)CSC[C@@H](C(=O)O)NC(=O)[C@H](Cc2ccccc2)NC(=O)[C@H](CCC(N)=O)NC(=O)[C@H]([C@@H](C)O)NC(=O)[C@@H]2CCCN2C(=O)[C@@H]2CCCN2C1=O [^111In-FAP-2286, metal not drawn]
u: %ID/g
tissue uptake at 6 h: 0.1

----------
Experiment: SPECT/CT biodistribution and tumor dosimetry of 177Lu-labeled tracers in HEK-FAP tumor-bearing mice
Type: in vivo, mouse
Details: mouse, in vivo, iv, 3 h after injection, 30 MBq IV, HEK-FAP mice; read-out: kidney accumulation

molecule: CCCCCC(=O)N[C@H]1CSCc2cc(CSCCNC(=O)CN3CCN(CC(=O)O)CCN(CC(=O)O)CCN(CC(=O)O)CC3)cc(c2)CSC[C@@H](C(=O)O)NC(=O)[C@H](Cc2ccccc2)NC(=O)[C@H](CCC(N)=O)NC(=O)[C@H]([C@@H](C)O)NC(=O)[C@@H]2CCCN2C(=O)[C@@H]2CCCN2C1=O [^177Lu-FAP-2286, metal not drawn]
u: %ID/g
tissue uptake at 3 h: 2.2

----------
Assay: SPECT/CT biodistribution of 111In-labeled tracers in HEK-FAP tumor-bearing mice
Format: in vivo, mouse
Settings: mouse, in vivo, iv, 1 h p.i., 30 MBq IV, HEK-FAP mice; read-out: Liver %ID/g (mean ± SD)
Protocol: HEK-FAP cell line was generated using the vector pTAR to insert FAP complementary DNA by recombinase-mediated cassette exchange into the pre-tagged HEK293 cells (InSCREENeX). […] Thirty megabecquerels (30 MBq/nmol) ^111In-FAP-2286 (n = 9) or ^111In-FAPI-04 (n = 6) was injected intravenously (IV) into HEK-FAP tumor-bearing mice and the distribution of the radiotracers was assessed using the NanoSPECT/computed tomography (CT) system (Mediso). […]
parameter: tissue uptake at 1 h (%ID/g)

molecule: CCCCCC(=O)N[C@H]1CSCc2cc(CSCCNC(=O)CN3CCN(CC(=O)O)CCN(CC(=O)O)CCN(CC(=O)O)CC3)cc(c2)CSC[C@@H](C(=O)O)NC(=O)[C@H](Cc2ccccc2)NC(=O)[C@H](CCC(N)=O)NC(=O)[C@H]([C@@H](C)O)NC(=O)[C@@H]2CCCN2C(=O)[C@@H]2CCCN2C1=O [^111In-FAP-2286, metal not drawn]
value: 0.3
